Taken from patent US10259808B2.

- TARGET OF ASSAY: RORc ligand binding domain (Homo sapiens, UniProt P51449)
- Sequence (P51449 269-508 limits assumed): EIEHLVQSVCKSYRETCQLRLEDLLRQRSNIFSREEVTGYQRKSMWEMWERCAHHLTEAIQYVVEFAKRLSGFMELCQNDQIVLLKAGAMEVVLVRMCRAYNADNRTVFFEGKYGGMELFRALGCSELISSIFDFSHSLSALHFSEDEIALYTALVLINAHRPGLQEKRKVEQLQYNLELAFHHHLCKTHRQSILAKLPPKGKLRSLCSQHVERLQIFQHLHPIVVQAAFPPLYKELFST
- PROTOCOL SUMMARY: In vitro RORc ligand binding assay (25-[3H]hydroxycholesterol displacement)
PROPERTY LABEL: IC50 (nM)

- C[C@H]1CC[C@H](c2ccccc2)S(=O)(=O)N1Cc1cc(F)c([C@]2([C@@H](O)Cc3ncn[nH]3)C[C@](C)(O)C2)cc1F (racemic): 29.5
- C[C@H]1CC[C@H](c2ccccc2)S(=O)(=O)N1Cc1cc(F)c([C@]2(c3cn(C)c(=O)o3)C[C@](C)(O)C2)cc1F: 2.8
- C[C@H]1CC[C@H](c2ccccc2)S(=O)(=O)N1Cc1cc(F)c(C2(c3n[nH]c(=O)o3)CCC2)cc1F: 9.4
- C[C@H]1CC[C@H](c2ccccc2)S(=O)(=O)N1Cc1cc(F)c(C2(c3n[nH]c(=O)o3)CC(F)(F)C2)cc1F: 2.7

a. C[C@H]1CC[C@H](c2ccccc2)S(=O)(=O)N1Cc1cc(F)c(C2(NC(=O)c3cc(=O)[nH]o3)COC2)cc1F
b. C[C@H]1CC[C@H](c2ccccc2)S(=O)(=O)N1Cc1ccc(C2(N(C)Cc3nnc[nH]3)CCOCC2)cc1F
Query: Given a and b , report the one with the higher recorded IC50. State your choice using its label.
Response: b
(b: 77.1 nM, a: 5.1 nM)
